SYSTEM_UNDER_TEST: T1, VEGFR-2-Fc (UniProt P35968 20-322)
T1 construct: domain: first 3 Ig domains; conditioned supernatant of 293T cells; also called VEGFR-2-Fc fusion protein; not shown: Fc fragment of the pIg vector
ASSAY_REMARKS: receptor-Fc IP
QUANTITY_KIND: binding result

12-3 (ligand) GQNHHEVVKFMDVYQRSYCHPIETLVDIFQEFGVATNTFFKPPCVSVYRCGGCCNSEGLQCVPTEESNITMQIMRIKPHQGQHIGEMSFLQHNKCECRPKKDLVFEQKLISEEDLNSAVDHHHHHH: binds
14-7 (ligand) GQNHHEVVKFMDVYQRSYCHPIETLVDIFQEFGVATNTFFKPSCVPLMRCGGCCNSEGLQCVPTEESNITMQIMRIKPHQGQHIGEMSFANHTSCRCMSKLD: binds
74-7 (ligand) GQNHHEVVKSIDNEWRKTQCMPREVCIDVGKEFGVATNTFFKPSCVPLMRCGGCCNSEGLQCVPTEESNITMQIMRIKPHQGQHIGEMSFANHTSCRCMSKLD: no binding
24-9 (ligand) AHYNTEILKSIDNEWRKTQCMPREVCIDVGKEFGVATNTFFKPSCVPLMRCGGCCNDEGLECVPTEESNITMQIMRITVPLSQGPKPVTISFLQHNKCECRPKKD: no binding
